# assay target: DNA topoisomerase 2-alpha (Homo sapiens) (UniProt P11388)
# Sequence (P11388 whole entry): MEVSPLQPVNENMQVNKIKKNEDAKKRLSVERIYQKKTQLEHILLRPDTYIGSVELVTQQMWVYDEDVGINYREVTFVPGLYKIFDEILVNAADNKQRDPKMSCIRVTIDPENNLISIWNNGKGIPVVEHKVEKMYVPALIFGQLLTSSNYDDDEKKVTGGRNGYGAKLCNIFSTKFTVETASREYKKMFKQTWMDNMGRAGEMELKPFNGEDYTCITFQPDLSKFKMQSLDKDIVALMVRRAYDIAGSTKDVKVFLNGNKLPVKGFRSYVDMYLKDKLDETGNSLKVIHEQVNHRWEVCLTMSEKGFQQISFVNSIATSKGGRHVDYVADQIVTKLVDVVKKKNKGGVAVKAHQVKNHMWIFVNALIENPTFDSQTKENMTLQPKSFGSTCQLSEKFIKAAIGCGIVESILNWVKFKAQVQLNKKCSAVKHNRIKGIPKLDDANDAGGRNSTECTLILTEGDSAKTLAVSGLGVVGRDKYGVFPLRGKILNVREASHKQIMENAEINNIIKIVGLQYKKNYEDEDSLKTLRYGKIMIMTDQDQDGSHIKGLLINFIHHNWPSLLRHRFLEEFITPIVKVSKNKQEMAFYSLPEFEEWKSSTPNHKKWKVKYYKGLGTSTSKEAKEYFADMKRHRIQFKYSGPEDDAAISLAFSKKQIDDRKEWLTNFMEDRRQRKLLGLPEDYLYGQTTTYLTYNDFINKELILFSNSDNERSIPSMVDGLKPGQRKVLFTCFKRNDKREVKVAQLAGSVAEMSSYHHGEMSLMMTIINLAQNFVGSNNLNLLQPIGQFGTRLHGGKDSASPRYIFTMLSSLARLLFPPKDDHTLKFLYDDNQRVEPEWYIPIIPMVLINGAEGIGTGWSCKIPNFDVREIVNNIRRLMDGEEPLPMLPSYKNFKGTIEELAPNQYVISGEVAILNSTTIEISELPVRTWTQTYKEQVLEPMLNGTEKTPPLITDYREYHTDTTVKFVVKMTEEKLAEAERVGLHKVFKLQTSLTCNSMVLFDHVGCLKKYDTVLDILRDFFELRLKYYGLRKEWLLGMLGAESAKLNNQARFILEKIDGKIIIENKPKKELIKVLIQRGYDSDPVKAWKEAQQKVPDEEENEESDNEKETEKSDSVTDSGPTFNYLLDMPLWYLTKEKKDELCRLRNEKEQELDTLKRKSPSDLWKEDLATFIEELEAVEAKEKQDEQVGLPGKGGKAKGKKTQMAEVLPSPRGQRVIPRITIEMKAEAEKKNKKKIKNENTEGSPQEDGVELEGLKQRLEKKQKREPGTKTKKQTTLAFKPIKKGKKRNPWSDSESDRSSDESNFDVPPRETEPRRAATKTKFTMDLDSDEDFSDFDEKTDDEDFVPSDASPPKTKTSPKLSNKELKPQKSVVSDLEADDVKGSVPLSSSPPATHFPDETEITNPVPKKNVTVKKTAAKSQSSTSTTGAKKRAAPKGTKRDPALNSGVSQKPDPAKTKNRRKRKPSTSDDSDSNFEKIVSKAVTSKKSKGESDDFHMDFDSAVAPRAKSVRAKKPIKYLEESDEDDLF
# method summary: Inhibition of human DNA topoisomerase 2 assessed as bacteriophage P4 DNA unknotting after 30 mins by agarose gel electrophoresis
Measured ID50 values are reported for all entries that follow.
A number alone suffices; assume µM.

compound	assay target	readout unit	ID50
COc1cc([C@@H]2c3cc4c(cc3[C@@H](NC(C)CO)[C@H]3COC(=O)[C@H]23)OCO4)cc(OC)c1O (some centres undefined)	DNA topoisomerase 2-alpha (Homo sapiens) (UniProt P11388)	µM	25
COc1cc([C@@H]2c3cc4c(cc3[C@@H](NCCO)[C@H]3COC(=O)[C@H]23)OCO4)cc(OC)c1O	DNA topoisomerase 2-alpha (Homo sapiens) (UniProt P11388)	µM	50
COc1cc([C@@H]2c3cc4c(cc3[C@@H](NCC(C)O)[C@H]3COC(=O)[C@H]23)OCO4)cc(OC)c1O (some centres undefined)	DNA topoisomerase 2-alpha (Homo sapiens) (UniProt P11388)	µM	25

input: Entry under review: COc1cc([C@@H]2c3cc4c(cc3[C@@H](O[C@@H]3O[C@@H]5CO[C@@H](C)O[C@H]5[C@H](O)[C@H]3O)[C@H]3COC(=O)[C@H]23)OCO4)cc(OC)c1O [ETOPOSIDE] . Reported ID50?
output: 50

Data origin: ChEMBL document CHEMBL1147287
